Target chain: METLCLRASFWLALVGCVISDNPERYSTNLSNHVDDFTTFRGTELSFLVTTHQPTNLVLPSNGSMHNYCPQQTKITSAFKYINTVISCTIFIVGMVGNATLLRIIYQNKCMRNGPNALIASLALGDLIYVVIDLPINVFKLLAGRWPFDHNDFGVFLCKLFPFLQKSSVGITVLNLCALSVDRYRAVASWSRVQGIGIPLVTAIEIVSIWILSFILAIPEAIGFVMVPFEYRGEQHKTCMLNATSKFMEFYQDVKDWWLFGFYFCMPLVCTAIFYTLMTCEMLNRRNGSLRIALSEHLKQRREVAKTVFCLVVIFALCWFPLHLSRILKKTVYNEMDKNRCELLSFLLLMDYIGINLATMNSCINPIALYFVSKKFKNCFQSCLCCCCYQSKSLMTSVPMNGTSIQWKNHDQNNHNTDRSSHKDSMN
# merged literature set: IC50 with the protein given by its sequence
Assay Metric: IC50 (nM)

{"Compound": "Cc1cc(C)c(NC(=O)c2sccc2S(=O)(=O)Nc2onc(C)c2Cl)c(C(=O)CS(C)(=O)=O)c1", "Assay Metric": "IC50", "Reported Result": 0.1}
{"Compound": "COc1ccc([C@@H]2c3nc(C)ccc3[C@H](c3ccc4c(c3)OCO4)[C@H]2C(=O)O)cc1", "Assay Metric": "IC50", "Reported Result": 5.7}
{"Compound": "COc1ccc([C@@H]2c3nc(NC(C)C)ccc3[C@H](c3ccc4c(c3)OCO4)[C@H]2C(=O)O)c(O)c1", "Assay Metric": "IC50", "Reported Result": 0.22}
{"Compound": "CCOc1ccc([C@H]2[C@H](C(=O)O)[C@@H](c3ccc4c(c3)OCO4)CN2CC(=O)Nc2c(CC)cccc2CC)cc1 (stereo in doubt; 37)", "Assay Metric": "IC50", "Reported Result": 340}
